Biological target: T1, FcRn-p3 fusion protein (human, UniProt P55899 24-297; P61769 21-119)
T1 construct: baculovirus expressed; coated on ELISA wells; not shown: amino terminal part of bacteriophage p3 protein and CVDE protein
T1 sequence (P55899 24-297, chain 1 of 2): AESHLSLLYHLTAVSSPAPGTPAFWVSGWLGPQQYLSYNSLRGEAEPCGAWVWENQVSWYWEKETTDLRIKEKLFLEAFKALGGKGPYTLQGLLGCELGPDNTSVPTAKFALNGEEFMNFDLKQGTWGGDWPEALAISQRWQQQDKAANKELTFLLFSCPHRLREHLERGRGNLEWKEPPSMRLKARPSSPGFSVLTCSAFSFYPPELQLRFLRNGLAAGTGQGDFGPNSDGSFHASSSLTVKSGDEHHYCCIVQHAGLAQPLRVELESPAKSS
T1 sequence (P61769 21-119, chain 2 of 2): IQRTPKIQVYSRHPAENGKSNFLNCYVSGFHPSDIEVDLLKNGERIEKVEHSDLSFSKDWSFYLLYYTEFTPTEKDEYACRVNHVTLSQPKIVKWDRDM
Assay: ELISA pH6, soluble Fc on coated FcRn-p3
QUANTITY KIND: pEC50
Note on units: pEC50 is unitless, being -log10 of a concentration expressed in mol/L.

Documented pEC50 of C6A_72 (soluble recombinant Fc polypeptide) (other, EU numbering; E. coli periplasmic expression; not shown: C-terminal 6xHis tag and V5 tag) CPPCPAPELLGGPSVFLFPPKPKDALMISRTPEVTCVVVDVSHEDPEVKFNWYVDGVEVHNAKTKPREEQYNSTYRVVSVLTVLHQDWLNGKEYKCKVSNKALPAPIEKTISKAKGQPREPQVYTLPPSRDELTKNQVSLTCLVKGFYPSDIAVEWESNGQPEKNYKTTPPVLDSDGSFFLYSKLTVDKSRWQQGNVFSCSVMHEALHYHYTQKSLSLSPGK : 8.11

Documented pEC50 of T5A_81 (soluble recombinant Fc polypeptide) (other, EU numbering; E. coli periplasmic expression; not shown: C-terminal 6xHis tag and V5 tag) CPPCPAPELLGGPSVFLFPPKPKDTLMISRTPEVTCVVEDVSHEDPEVKFNWYVDGVEVHNAKTKPREEQYNSTYRVVSVLTVLHQDWLNGKEYKCKVSNKALPAPIEKTISKAKGQPREPQVYTLPPSRDELTKNQVSLTCLVKGFYPSDIVVEWESNGQPENNYKTTPPVLDSDGSFFLYSKLTVDKSKWQQGNVFSCSVMHEALHNHYTQKSLSLSPGK : 6.84

Documented pEC50 of T5A_74 (soluble recombinant Fc polypeptide) (other, EU numbering; E. coli periplasmic expression; not shown: C-terminal 6xHis tag and V5 tag) CPPCPAPELLGGPSVFLFPPKPKDTLMISRTPEVTCVVVDVSHEDPEVKFNWYVDGVEVHNAKTKPREEQYNSTYRVVSVLTVLHQDWLDGKEYKCKVSNKALPVPIEKTISKAKGQPREPQVYTLPPSRDELTKDQVSLTCLVKGFYPSDIVVEWESNGQPENNYKTTPPVLDSDGSFFLYSKLTVDKSRWQQGNVFSCSVMHEALHYHYTQKSLSLSPGK : 8.26

Documented pEC50 of C6A_66 (soluble recombinant Fc polypeptide) (other, EU numbering; E. coli periplasmic expression; E294del is a deletion; not shown: C-terminal 6xHis tag and V5 tag) CPPCPAPELLGGPSVFLFPPKPKDTLMISRTPEVTCVVVDVSHEDPEVKFNWYVDGVEVHNAKTKPREQYNSTYRVVSVLPVLHQDWLNGKEYKCKVSNKALPAPIEKTISKAKGQPREPQVYTLPPSRDELTKNQVSLTCLVKGFYPSDIAVEWESNGQPENNYKTTPPVLDSDGSFFLYSKLTVDKSRWQQGNVFSCSVMHEALHYHYTQKSLSLSPGK : 8.31

Continuing:
Documented pEC50 of C6A_69 (soluble recombinant Fc polypeptide) (other, EU numbering; E. coli periplasmic expression; not shown: C-terminal 6xHis tag and V5 tag) CPPCPAPELLGGPSVFLFPPKPKDTLMISRTPEVTCVVVDVSHEDPEVKFNWYVDGVEVHNAKTKPREEQYNSTYRVVSVLAVLHQDWLDGKEYKCKVSNKALPVPIEKTISKAKGQPREPQVYTLPPSRDELTKNQVSLTCLVKGFYPSDIAVEWVSNGQPETNYKTTPPVLDSDGSFFLYSKLTVDKSRWQQGNVFSCSVMHEALHYHYTQKSLSLSPGK : 8.43
